# test.system: GDP-mannose dehydrogenase (GMD) (Pseudomonas aeruginosa, UniProt P11759)
# Construct: native full-length protein purified from mucoid P. aeruginosa; 48 kDa polypeptide; 59 kDa apparent on gel filtration, monomer/active dimer; no tag
# Sequence (P11759 whole entry): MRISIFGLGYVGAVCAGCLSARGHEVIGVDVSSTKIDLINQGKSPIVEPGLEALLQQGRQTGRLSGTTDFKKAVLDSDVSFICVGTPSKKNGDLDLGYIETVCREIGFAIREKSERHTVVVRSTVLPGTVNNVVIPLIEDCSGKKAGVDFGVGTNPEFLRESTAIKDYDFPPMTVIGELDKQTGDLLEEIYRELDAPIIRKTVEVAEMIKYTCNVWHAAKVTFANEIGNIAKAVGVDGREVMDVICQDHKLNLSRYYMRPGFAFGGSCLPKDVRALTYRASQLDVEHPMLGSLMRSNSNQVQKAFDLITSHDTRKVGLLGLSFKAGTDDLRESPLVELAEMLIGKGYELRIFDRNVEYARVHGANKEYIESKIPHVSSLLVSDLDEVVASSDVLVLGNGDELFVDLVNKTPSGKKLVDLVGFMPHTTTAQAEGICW
# procedure.text: NADH formation at […] nm, Dixon plot
pKi: −log10 of the molar value.
measured.metric: pKi

Entry Nc1nc2c(ncn2[C@@H]2O[C@H](CO)[C@@H](O)[C@H]2O)c(=O)[nH]1 [guanosine] , GDP-mannose dehydrogenase (GMD) (Pseudomonas aeruginosa, UniProt P11759) data, pKi value: ~4.40

Data provenance is paper PMC10740432.
